System: Influenza A virus (A/California/04/2009(H1N1))
ASSAY: Inhibition of Influenza A (A/California/04/2009) (H1N1) clinical isolate N-terminal truncated PA endonuclease at 500 nM using 5'-FAM/3-TAMRA quencer labeled 17-mer ssDNA-oligo as substrate measured over 45 mins by FRET assay relative to control
MEASURED ATTRIBUTE: inhibition
Phrase the answer as number then unit, nothing more needed.

Form: molecule = `O=C1c2c(O)cccc2Cc2cccc(O)c21` ; inhibition = 18%

Form: molecule = `O=c1cc[nH]c(-c2nnn[nH]2)c1O` ; inhibition = 96%

Form: molecule = `Cc1cc(=O)c(O)c(-c2ncco2)o1` ; inhibition = 88%

Form: molecule = `Cc1cc(=O)c(O)c(C(=O)O)o1` ; inhibition = 96%

Form: molecule = `Cc1cc(=O)c(O)c(C(N)=O)o1` ; inhibition = 30%

Form: molecule = `O=C(O)c1cccc(O)c1O` ; inhibition = 15%

Form: molecule = `CNC(=O)c1oc(C)cc(=O)c1O` ; inhibition = 22%

Form: molecule = `O=C(O)c1ccc2cccc(O)c2[n+]1[O-]` ; inhibition = 5%

Form: molecule = `O=c1c(O)ccccc1O` ; inhibition = 95%

Form: molecule = `O=C(O)c1ccc2cccnc2c1O` ; inhibition = 67%

* * *

Can you tell me inhibition for the items I'm about to list?
System: Bacteria
ASSAY: Inhibition of bacterial NDM1 at 200 uM using chromacef as substrate preincubated for 10 mins followed by substrate addition
I only need the number, in %, no unit after it.

Bench note, Bacteria: `Cc1nc(-c2[nH]ccc(=O)c2O)no1` , inhibition reads 3

Bench note, Bacteria: `O=C(O)c1cccc(O)c1O` , inhibition reads 15

Bench note, Bacteria: `O=c1cc[nH]c(-c2nnn[nH]2)c1O` , inhibition reads 99

Bench note, Bacteria: `Cc1cc(=O)c(O)c(C(N)=O)o1` , inhibition reads 8

Bench note, Bacteria: `Nc1cccc(C(=O)O)c1O` , inhibition reads 7

Bench note, Bacteria: `Cc1cc(=O)c(O)c(-c2ncco2)o1` , inhibition reads 8

Bench note, Bacteria: `N/C(=N\O)c1[nH]ccc(=O)c1O` , inhibition reads 43

Bench note, Bacteria: `Cc1nc(C(=O)O)c(O)c(=O)[nH]1` , inhibition reads 3

Bench note, Bacteria: `Cc1cc(C(=O)O)c(O)c(=O)[nH]1` , inhibition reads 9

Bench note, Bacteria: `Cc1cc(=S)c(O)c(C(=O)O)o1` , inhibition reads 84

* * *

EXPERIMENTAL SYSTEM: UniProtKB P05089
Sequence (P05089 whole entry): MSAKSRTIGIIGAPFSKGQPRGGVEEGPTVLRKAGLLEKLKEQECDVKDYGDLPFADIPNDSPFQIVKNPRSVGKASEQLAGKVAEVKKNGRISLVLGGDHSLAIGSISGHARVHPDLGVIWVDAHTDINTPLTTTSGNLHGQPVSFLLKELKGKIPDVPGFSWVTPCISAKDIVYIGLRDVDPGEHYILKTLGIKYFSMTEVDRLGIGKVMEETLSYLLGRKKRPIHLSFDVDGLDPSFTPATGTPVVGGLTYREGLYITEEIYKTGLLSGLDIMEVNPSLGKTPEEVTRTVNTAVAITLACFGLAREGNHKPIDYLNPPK
ASSAY: Inhibition of full length human arginase 1 expressed in Escherichia coli BL21(DE3) at 200 uM using unlabeled L-arginine/L-[guanidino-14C]arginine as substrate after 5 mins by liquid scintillation counting method relative to control
Can you tell me inhibition for the items I'm about to list?
I only need the number, in %, no unit after it.

Bench note, UniProtKB P05089: `O=C(O)c1ccc2cccc(O)c2[n+]1[O-]` , inhibition reads 16

Bench note, UniProtKB P05089: `Cc1cc(=O)c(O)c(C(=O)O)n1C` , inhibition reads 2

Bench note, UniProtKB P05089: `Cc1cc(=O)c(O)c(C(=O)O)[nH]1` , inhibition reads 24

Bench note, UniProtKB P05089: `O=C(O)c1occc(=O)c1O` , inhibition reads 1

Bench note, UniProtKB P05089: `CNC(=O)c1oc(C)cc(=O)c1O` , inhibition reads 8

Bench note, UniProtKB P05089: `Cc1cc(O)c(=O)c(O)cc1C(=O)O` , inhibition reads 32

Bench note, UniProtKB P05089: `Nc1cccc(C(=O)O)c1O` , inhibition reads 11

Bench note, UniProtKB P05089: `Cc1cc(=O)c(O)c(-c2ncco2)o1` , inhibition reads 0

Bench note, UniProtKB P05089: `Cc1cc(C(=O)O)c(O)c(=O)[nH]1` , inhibition reads 8

Bench note, UniProtKB P05089: `O=C(O)c1cccc(=O)n1O` , inhibition reads 2

Bench note, UniProtKB P05089: `O=C(O)c1ccc2cccnc2c1O` , inhibition reads 22

Bench note, UniProtKB P05089: `CNC(=O)c1cc(C)[nH]c(=O)c1O` , inhibition reads 5

Bench note, UniProtKB P05089: `O=C(O)c1cccc(O)c1O` , inhibition reads 82

Bench note, UniProtKB P05089: `Cc1cc(=O)c(O)c(C(=O)O)o1` , inhibition reads 8

Bench note, UniProtKB P05089: `Cc1nc(C(=O)O)c(O)c(=O)[nH]1` , inhibition reads 0

Bench note, UniProtKB P05089: `Cc1cc(=O)c(O)c(C(=O)O)n1O` , inhibition reads 12

Bench note, UniProtKB P05089: Oc1cccc(O)c1O [PYROGALLOL] , inhibition reads 49

Bench note, UniProtKB P05089: `O=c1c(O)ccccc1O` , inhibition reads 92

Bench note, UniProtKB P05089: `Cc1occ(O)c(=O)c1C(=O)O` , inhibition reads 5

Bench note, UniProtKB P05089: `Cc1cc(=S)c(O)c(C(=O)O)o1` , inhibition reads 9

Bench note, UniProtKB P05089: `N/C(=N\O)c1[nH]ccc(=O)c1O` , inhibition reads 83

Bench note, UniProtKB P05089: `Cc1cc(=O)c(O)c(C(N)=O)o1` , inhibition reads 5

Bench note, UniProtKB P05089: `O=C1c2c(O)cccc2Cc2cccc(O)c21` , inhibition reads 41

Bench note, UniProtKB P05089: `Cc1nc(-c2[nH]ccc(=O)c2O)no1` , inhibition reads 6

Bench note, UniProtKB P05089: `O=c1cc[nH]c(-c2nnn[nH]2)c1O` , inhibition reads 7

* * *

System: Influenza A virus (A/California/04/2009(H1N1))
ASSAY: Inhibition of Influenza A (A/California/04/2009) (H1N1) clinical isolate N-terminal truncated PA endonuclease at 500 nM using 5'-FAM/3-TAMRA quencer labeled 17-mer ssDNA-oligo as substrate measured over 45 mins by FRET assay relative to control
Can you tell me inhibition for the items I'm about to list?

Form: molecule = `N/C(=N\O)c1[nH]ccc(=O)c1O` ; inhibition = 15%

Form: molecule = `Cc1nc(C(=O)O)c(O)c(=O)[nH]1` ; inhibition = 28%

Form: molecule = `Cc1nc(-c2[nH]ccc(=O)c2O)no1` ; inhibition = 30%

Form: molecule = `O=C(O)c1occc(=O)c1O` ; inhibition = 94%

Form: molecule = `O=C(O)c1cccc(=O)n1O` ; inhibition = 9%

Form: molecule = `Cc1cc(=S)c(O)c(C(=O)O)o1` ; inhibition = 46%

Form: molecule = `Cc1cc(O)c(=O)c(O)cc1C(=O)O` ; inhibition = 98%

Form: molecule = `Nc1cccc(C(=O)O)c1O` ; inhibition = 0%

Form: molecule = `Cc1occ(O)c(=O)c1C(=O)O` ; inhibition = 21%

Form: molecule = `CNC(=O)c1cc(C)[nH]c(=O)c1O` ; inhibition = 7%

Form: molecule = `Cc1cc(=O)c(O)c(C(=O)O)n1O` ; inhibition = 81%

Form: molecule = `Cc1cc(C(=O)O)c(O)c(=O)[nH]1` ; inhibition = 44%

Form: molecule = `Cc1cc(=O)c(O)c(C(=O)O)[nH]1` ; inhibition = 97%

Form: molecule = `Cc1cc(=O)c(O)c(C(=O)O)n1C` ; inhibition = 21%

Form: molecule = `Oc1cccc(O)c1O` ; inhibition = 21%
